Assay: qHTS assay to identify small molecule antagonists of the retinoic acid receptor (RAR) signaling pathway (AID 1159552; also: nearly all actives have a fitted effect of over 50% in size; also: potency is read from the fitted curve at half-maximal effect)
Details: C3RL4 RARE luciferase reporter, retinol-stimulated, 6 h; series mostly up to 92.4 µM
Records with an inconclusive call do not appear. Active and inactive are the calls of the source. Calls follow the shape of the dose curve; as a rule, active = well fitted inhibition curve with a large enough effect in the repeat runs; inconclusive = weak or mixed curves, or effect the other way; inactive = no such curve, though single readings can be large or run the other way.
Parameter: Potency

Compound	Readout Value
CCCC(C)c1ccccc1O (configuration not stated)	inactive
Cn1cc(C(=O)[C@@H]2CCc3nc[nH]c3C2)c2ccccc21	inactive
O=C1C=CC(=O)N1	8.86 µM (active)
Cc1cc(O)c2ccccc2c1O	16.8 µM (active)
N#CC1(c2ccc(F)cc2)CCC(=O)CC1	inactive
CC(C)(C)CC(C)(C)c1ccc(O)c(Cc2ccc(Cl)cc2Cl)c1	13.3 µM (active)
CN(C)c1ccc(C2(c3ccc(N(C)C)cc3)OC(=O)c3cc(N(C)C)ccc32)cc1	inactive
C=C(C)C(=O)OCC[N+](C)(C)C	inactive
C=CC(=O)OCC(CO)(COCC(COC(=O)C=C)(COC(=O)C=C)COC(=O)C=C)COC(=O)C=C	7.6 µM (active)
CCCCCCCCCCC=O	inactive
CCN(C(=O)N(CC)c1ccccc1)c1ccccc1	inactive
COc1ccc(-c2ccc3cc(C(=O)O)ccc3c2)cc1C12CC3CC(CC(C3)C1)C2	inactive

###

Experiment: Human pregnane X receptor (PXR) small molecule agonists, qHTS cell viability counter screen (AID 1346977); also: nearly all actives have a fitted effect of over 50% in size
Details: PXR-Luc HepG2 viability, CellTiter-Fluor, 24 h; series mostly up to 92.4 µM
Inconclusive results are not listed. The source made the active and inactive calls. Calls follow the shape of the dose curve; as a rule, active = well fitted cell-killing curve with a large enough effect in the repeat runs; inconclusive = weak or mixed curves, or effect the other way; inactive = flat fitted curve, though single readings scatter.
Possible outcomes: 1 = active, -1 = inactive

Compound	Assigned Class
Clc1ccc(C(Cn2ccnc2)OCc2ccc(Sc3ccccc3)cc2)c(Cl)c1 (stereo unspecified)	-1
Oc1ccc2cc(SSc3ccc4cc(O)ccc4c3)ccc2c1	-1
CCC(C)(C)C1CCCCC1OC(C)=O (stereo unspecified)	-1
Cc1cc2c(cc1C(F)(F)F)N(C(=O)Nc1ccc(Oc3cccnc3C)nc1)CC2	1
CCC(N)(CO)CO	-1
CCCC(c1cc(C(C)(C)C)c(O)cc1C)c1cc(C(C)(C)C)c(O)cc1C	1
CCCCCCCCOc1ccccc1C(=O)Nc1ccc(C(=O)OCC[N+](C)(CC)CC)cc1	-1
Oc1cccc2cc3cccc(O)c3c(O)c12	-1
CCCCCCCC[P+](CCCCCCCC)(CCCCCCCC)CCCCCCCC	1
O=C1C=CC(=O)N1c1ccc(Cc2ccc(N3C(=O)C=CC3=O)cc2)cc1	1
CC(C)(C)CC(C)(C)c1ccc(O)c(Cc2ccc(Cl)cc2Cl)c1	1

###

Assay: qHTS assay to identify small molecule antagonists of the peroxisome proliferator-activated receptor gamma (PPARg) signaling pathway - cell viability counter screen (AID 743194); also: nearly all actives have a fitted effect of over 55% in size
Conditions: PPARg-bla HEK293H viability, CellTiter-Glo luminescence, 17 h, co-treated with 50 nM rosiglitazone; series mostly up to 62.6 µM
Inconclusive results are not listed. Calls of active or inactive are those of the source. The call rests on the fitted dose curve; in most records, active means well fitted cell-killing curve with a large enough effect in the repeat runs; inconclusive means weak or mixed curves, or effect the other way; inactive means no such curve, though single readings can be large or run the other way.
Labels: y = active, n = inactive

Molecule	Assigned Class
CN1CCN(CCC(=O)N2c3ccccc3Sc3ccc(C(F)(F)F)cc32)CC1	y
CNc1ccc(O)cc1	y
Cc1cc(=O)oc2cc(N(C)C)ccc12	n
CC(C)c1ccc2c(c1)CC[C@H]1[C@](C)(CN)CCC[C@]21C	y
Cc1[nH]cnc1C[C@H]1CCc2c(C)c3ccccc3n2C1=O	y
C[n+]1cc2c3c(ccc2c2ccc4cc5c(cc4c21)OCO5)OCO3	y
CCCCC(CC)COC(=O)c1ccccc1C(=O)O (stereo not given)	n
Cc1cccc(S(=O)(=O)O)c1C	n
O=C(OCC(COC(=O)c1ccccc1)(COC(=O)c1ccccc1)COC(=O)c1ccccc1)c1ccccc1	n
Cc1cc(O)c2ccccc2c1O	y
CCCCCOC(=O)CCCC	n
O=S1(=O)CC(Cl)(Cl)C(Cl)(Cl)C1	y
CCCCCCCC(=O)[O-].CCCCCCCC(=O)[O-].[Zn+2]	n
OCCN(CCO)c1nc(N2CCCCC2)c2nc(N(CCO)CCO)nc(N3CCCCC3)c2n1	n
C[C@@H](NCCCc1cccc(C(F)(F)F)c1)c1cccc2ccccc12	y

The reported measurements were obtained from PubChem BioAssay (Tox21).
